# assayed target: cytochrome P450 3A4 (Homo sapiens, UniProt P08684)
# Construct: host or cells: microsomes
# Sequence (P08684 whole entry): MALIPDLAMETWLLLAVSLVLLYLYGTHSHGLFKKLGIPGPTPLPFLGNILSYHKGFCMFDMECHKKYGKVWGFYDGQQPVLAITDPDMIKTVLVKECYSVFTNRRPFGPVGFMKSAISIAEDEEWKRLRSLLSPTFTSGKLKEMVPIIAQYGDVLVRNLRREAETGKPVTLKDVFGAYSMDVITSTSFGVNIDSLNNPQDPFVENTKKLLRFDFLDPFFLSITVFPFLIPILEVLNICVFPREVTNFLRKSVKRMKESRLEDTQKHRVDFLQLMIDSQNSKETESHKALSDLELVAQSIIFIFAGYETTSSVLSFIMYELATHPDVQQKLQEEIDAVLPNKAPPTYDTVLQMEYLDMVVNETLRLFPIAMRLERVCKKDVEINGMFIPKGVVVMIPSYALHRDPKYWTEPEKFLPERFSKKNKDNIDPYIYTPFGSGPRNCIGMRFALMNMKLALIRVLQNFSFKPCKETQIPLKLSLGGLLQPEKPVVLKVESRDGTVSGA
# assay: BzRes oxidation and ketoconazole inhibition, cytochrome P450 3A4 microsomes in solution and encapsulated in agarose
# Format: biochemical
# particulars: Gel encapsulated (agarose) microsomes; standard error in parentheses
measurement kind: Km (µM)
Give bare numbers, in µM.

Return reported Km. Input compound: "O=c1ccc2nc3ccc(OCc4ccccc4)cc3oc-2c1"
49

----------
# assayed target: 3A4*2 (Homo sapiens, UniProt P08684, S222P)
# Construct: His-tag (concluded from Ni-NTA / Talon purification); biotinylated tag (BCCP; concluded from streptavidin detection); made in house; host or cells: E. coli XL-10 gold
# Sequence (P08684 whole entry S222P): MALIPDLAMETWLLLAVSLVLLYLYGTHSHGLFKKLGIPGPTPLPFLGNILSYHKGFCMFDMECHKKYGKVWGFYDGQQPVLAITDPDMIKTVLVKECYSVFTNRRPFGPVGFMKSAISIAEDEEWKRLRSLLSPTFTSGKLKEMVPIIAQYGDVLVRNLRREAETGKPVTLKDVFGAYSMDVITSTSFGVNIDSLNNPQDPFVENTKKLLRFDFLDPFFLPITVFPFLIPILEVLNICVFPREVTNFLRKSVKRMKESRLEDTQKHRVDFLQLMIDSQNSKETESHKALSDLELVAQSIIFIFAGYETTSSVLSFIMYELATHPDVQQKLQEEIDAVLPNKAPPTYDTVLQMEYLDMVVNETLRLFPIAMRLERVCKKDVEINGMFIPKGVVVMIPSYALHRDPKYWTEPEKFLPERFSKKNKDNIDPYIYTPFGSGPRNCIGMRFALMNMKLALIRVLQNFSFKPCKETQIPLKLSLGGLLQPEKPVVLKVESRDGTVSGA
# assay: BzRes turnover and ketoconazole inhibition, cumene hydrogen peroxide activated purified P450 3A4 isoform
# Format: biochemical
# particulars: 200 μM cumene hydrogen peroxide, standard error in parentheses
measurement kind: Km (µM)
Give bare numbers, in µM.

Provide one value: measured Km of O=c1ccc2nc3ccc(OCc4ccccc4)cc3oc-2c1 [BzRes, resorufin benzyl ether]
62

----------
# assayed target: 3A4*5 (Homo sapiens, UniProt P08684, P218R)
# Construct: His-tag (concluded from Ni-NTA / Talon purification); biotinylated tag (BCCP; concluded from streptavidin detection); made in house; host or cells: E. coli XL-10 gold
# assay: BzRes turnover and ketoconazole inhibition, cumene hydrogen peroxide activated purified P450 3A4 isoform
# Format: biochemical
# particulars: 200 μM cumene hydrogen peroxide, standard error in parentheses
measurement kind: Km (µM)
One number for each entry, in µM.

Note Km for the compound shown: O=c1ccc2nc3ccc(OCc4ccccc4)cc3oc-2c1 [BzRes, resorufin benzyl ether]
101

----------
# assayed target: cytochrome P450 3A4 (Homo sapiens, UniProt P08684)
# Construct: host or cells: microsomes
# assay: BzRes oxidation and ketoconazole inhibition, cytochrome P450 3A4 microsomes in solution and encapsulated in agarose
# Type: biochemical
# particulars: Soluble microsomes; standard error in parentheses
measurement kind: Km (µM)
One number for each entry, in µM.

// fetch Km given entry "O=c1ccc2nc3ccc(OCc4ccccc4)cc3oc-2c1"
20

// data source = patent US10870925B2
